Assay: NCI Yeast Anticancer Drug Screen. Data for the mlh1 rad18 strain (AID 175)
Conditions: S. cerevisiae mlh1 rad18 strain growth inhibition; at 50.0 µM; stronger effect = higher value
About 79,000 compounds went through this panel and 15% of them were active in at least one assay; those are over-represented in the sample as a whole.
For each record, write down the corresponding growth inhibition.
Value expressed in %; do not type the unit.

Entry C(#Cc1c2ccccc2c(C#Cc2ccccc2)c2c(-c3ccccc3)cccc12)c1ccccc1 — recorded growth inhibition = 24.5

Record summary for Clc1ccc(C2OCCCO2)cc1 : reported growth inhibition = -1.65

The recorded growth inhibition for entry O=C(O)c1c(Br)c(Br)c(Br)c(Br)c1C(=O)Nc1ccccc1F equals 12.4

So, O=C(OC(C[n+]1ccccc1)c1ccccc1)c1ccccc1 (stereo not given) ? Its growth inhibition was 34

growth inhibition reading for COc1ccc2ccc3[nH]c4c(C)cnc(NCCCN(C)C)c4c3c2c1 : 29.1

// growth inhibition value for O=C(c1nc2ccc([N+](=O)[O-])cc2[nH]c1=O)C(O)c1ccc2c(c1)OCO2 (stereo not given) : 0.35

Consider Cc1cc(=O)[nH]c(N/N=C/c2ccco2)n1 . Its measured growth inhibition is -15.3

Recorded result, O=C(SCc1ccccc1)C(O)c1ccccc1 (stereo not given) , growth inhibition: 5.2

The compound listed as CCC(=O)Oc1cccc2ccccc12 shows growth inhibition equal to -8.05

Just so you know, measured growth inhibition for CCOC(=O)c1c[nH]c2c(C(F)(F)F)cccc2c1=O came out at 14.6

Record summary for CCCCCNc1ccnc(=O)[nH]1 : reported growth inhibition = -12.7

Reported growth inhibition for CC(C)CCCC(C)C1CCC2C3CCC4=CC(=O)C=CC4(C)C3CCC12C (stereo not given) was 41

# growth inhibition of COc1ccc(N2NC(c3ccccc3)(c3ccccc3)C(C)C2=O)cc1 (stereo not given) = 40.1

get_value(item= COc1ccc2oc(=N)c(C(=O)NCc3ccccc3)cc2c1 , readout=growth inhibition) returns -24.6

Lab book: growth inhibition of Cc1cccc(CC(N)C(=O)O)c1 (stereo not given) noted as -9.8

Per the record, CC(=O)Nc1ccc(NS(=O)(=O)c2ccc3nc(C)n(NS(=O)(=O)c4ccc(NC(C)=O)cc4)c(=O)c3c2)cc1 has growth inhibition of 15.3

# compound CCCCOc1n[nH]c(=O)c2ccccc12 ; its growth inhibition = 8.6

Input CCOC(=O)/C=C(/OCC)c1cccc(Cl)c1 . Output growth inhibition: -1.85

Data point: CCOC(=O)c1c(O)[nH]c(=O)c(CC)c1C ; growth inhibition = -4.1

response.value for O=S(=O)(O)c1ccc(-c2nc3ccccc3[nH]2)cc1 (field: growth inhibition) = -18.9

Form: compound = O=C(OCN1C(=O)C2C3C=CC(C2C1=O)C1C2C(=O)N(COC(=O)C4CCCN4)C(=O)C2C31)C1CCCN1 (stereo not given) ; growth inhibition = -10.1

Recorded growth inhibition (compound COC(=O)c1ccncc1 ): -0.45

Note to self: growth inhibition recorded for O=C1CNC(=O)N1c1ccccc1 was 3.8

// growth inhibition value for NC(=O)CSCC(N)C(=O)O (stereo not given) : -20

Given item Cc1ccc(C(=O)Cc2nc3c([nH]c2=O)c(C)nn3-c2ccccc2)c(C)c1 , the value recorded as its growth inhibition is 4.7
